Target: Jak2 (UniProt O60674)
Sequence (O60674 whole entry, looked up): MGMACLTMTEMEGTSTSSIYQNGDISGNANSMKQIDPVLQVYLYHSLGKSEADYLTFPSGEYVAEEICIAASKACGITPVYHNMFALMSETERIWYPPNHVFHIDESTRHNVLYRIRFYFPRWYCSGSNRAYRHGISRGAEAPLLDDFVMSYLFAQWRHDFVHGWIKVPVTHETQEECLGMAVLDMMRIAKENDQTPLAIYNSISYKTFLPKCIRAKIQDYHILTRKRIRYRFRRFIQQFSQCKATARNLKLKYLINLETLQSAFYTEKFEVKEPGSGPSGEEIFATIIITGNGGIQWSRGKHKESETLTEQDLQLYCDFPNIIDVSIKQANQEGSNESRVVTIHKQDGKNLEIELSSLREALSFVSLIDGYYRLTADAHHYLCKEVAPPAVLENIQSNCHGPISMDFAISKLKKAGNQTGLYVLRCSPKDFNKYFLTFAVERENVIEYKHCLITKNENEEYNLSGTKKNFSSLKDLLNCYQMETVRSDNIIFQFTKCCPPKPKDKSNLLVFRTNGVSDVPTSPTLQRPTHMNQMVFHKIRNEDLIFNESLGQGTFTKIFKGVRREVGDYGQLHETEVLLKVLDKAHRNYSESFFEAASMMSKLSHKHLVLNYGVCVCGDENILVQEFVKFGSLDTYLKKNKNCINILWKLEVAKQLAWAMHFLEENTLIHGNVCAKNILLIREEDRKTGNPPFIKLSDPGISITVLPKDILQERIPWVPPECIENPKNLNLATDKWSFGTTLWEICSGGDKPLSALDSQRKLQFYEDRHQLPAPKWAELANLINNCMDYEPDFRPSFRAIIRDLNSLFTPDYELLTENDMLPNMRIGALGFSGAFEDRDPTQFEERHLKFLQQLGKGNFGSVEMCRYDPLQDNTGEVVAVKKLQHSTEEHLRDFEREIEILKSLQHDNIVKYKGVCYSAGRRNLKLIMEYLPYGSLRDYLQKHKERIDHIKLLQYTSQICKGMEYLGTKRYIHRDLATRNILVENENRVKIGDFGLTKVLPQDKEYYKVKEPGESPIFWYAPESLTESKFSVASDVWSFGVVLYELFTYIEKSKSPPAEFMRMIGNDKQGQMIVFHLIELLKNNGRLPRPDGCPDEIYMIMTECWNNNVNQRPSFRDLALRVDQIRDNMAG
Test: phosphorylation enrichment, bacterial display (enrichment ratio); higher = better substrate or ligand; peptides without Tyr show the background;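 also: 11-residue human phosphosite peptides and single-mutation variants displayed on the E. coli surface, counted by deep sequencing, each peptide's frequency after selection divided by its frequency in the unselected input library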;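 also: frequency after pTyr selection over input frequency; kinase dosed for 20-30% of maximal phosphorylation in three min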
metric-name: phosphorylation enrichment
Give bare numbers.

Worked set:
SLEKGYELPDG [ACTC1_Y242_S241G] = 0.756
IKKFKYRIEEH [GJA1_Y137_G138R] = 0.717
GPSTPYTKSKC [SMARCC2_Y324_R329C] = 0.573
PQGVSYIYTID [DCX_Y103_R102S] = 1.55
LRFKQYLRNPP [SHC1_Y315] = 1.17
FADIAYNFHHG [PAH_Y166_R169H_YF] = 0.43
RFFTTYDTNGR [CLCA1_Y665_YF] = 0.816
EPSVPYRGMVF [GLI3_Y104_T107M] = 0.639
VYYDLYGGEKF [PTPN11_Y66_D61V] = 2.2
RKLVDYDSARH [BIN1_Y150] = 0.792

Please supply phosphorylation enrichment for each of the following items, keeping them in order.
1. PYIDSYEKDVA [PGM1_Y521_L516P]
2. GFRPVYSEDEQ [CHST6_Y362_YF]
3. IHETTYNSIKK [ACTA1_Y281_M285K]
4. LITTLYIGFLG [KCNQ1_Y267]

1. 1.61
2. 1.47
3. 0.532
4. 2.33

###

Could you please report measured phosphorylation enrichment for the items listed next?
Molecular target: Jak2 (UniProt O60674)
Experiment: phosphorylation enrichment, bacterial display (enrichment ratio); higher = better substrate or ligand; peptides without Tyr show the background

Please state, for each entry, its recorded phosphorylation enrichment.
1. MVTSGYKAKTI [EFR3A_Y447]
2. HFECKYVINAI [MAOA_Y268_YF]

0.364
1.47

Give phosphorylation enrichment for each listed item.
1. LARDMDDKEFF [MET_Y1230_Y1230D_YF]
2. ERIEFYELNKK [PMM2_Y145_D148N]
3. LCRYGYANTSE [SI_Y1233]
4. DDSNPYINVKL [MTHFD1_Y52_L51P]
5. ISSLCYELLEE [TRPC6_Y896_R895C]
6. AFSTVYKGLWI [EGFR_Y727_G724S]

0.708
0.731
1.11
1.16
1.36
1.1

###

Can you tell me phosphorylation enrichment for the items I'm about to list?
Tested on: Fer (mouse)
Test: phosphorylation enrichment, bacterial display (enrichment ratio); higher = better substrate or ligand; peptides without Tyr show the background
One number for each entry.

GDEEDYFEIPG [EGFR_opt_F_2015] = 0.5

Report phosphorylation enrichment for every entry below.
1. CTTIRYNFMCN [TP53_Y234_H233R_YF]
2. GGGGSYNDFGN [HNRNPA1_Y312]
3. KSVITYSPTTG [ITGB3BP_Y32]
4. EFISEHCGEII [EZH2_Y641_Y641H]

0.501
0.33
0.401
0.652

###

Test system: c-Src
Experiment: phosphorylation enrichment, bacterial display (enrichment ratio); higher = better substrate or ligand; peptides without Tyr show the background
metric-name: phosphorylation enrichment
Give bare numbers.

WCKPPYFSCAV [MMS22L_Y28] = 0.459
FPLELYERVRI [PRKCG_Y312_M317I_YF] = 0.528
GRVYVYHLSEQ [ITGAE_Y551_R552H] = 0.799
GFRVFYTPDSR [PTPRF_Y451_YF] = 0.449
RRIHNYRGHLW [VHL_Y112_S111N] = 0.607
ECKLRYSRKEG [PTPN11_Y263_L262R] = 0.423
FNVLQYVVPKV [EIF3A_Y382_E386K] = 0.383
EFENSCIFDIN [GAB1_Y83_Y83C] = 0.397
ALKKPYSVLFK [RPF2_Y59_G60S_YF] = 0.526
GMTRNYIIFIE [BCO2_Y294] = 0.498

Go through the items and report each one's phosphorylation enrichment.
1. RLPSGYGLAFR [DLK1_Y262_YF]
2. CENCHYPILPL [LCK_Y25_V28L]
3. SGGMDYGMVGG [TNRC6B_Y1382]
4. MDQAEYQAKIR [DHX58_Y518]
5. EVVGKYSVHNA [MLH1_Y183_R182K]
6. SGDVQYRSSVR [FREM2_Y2158_T2153S]

1. 0.478
2. 0.436
3. 1.95
4. 0.43
5. 0.438
6. 0.364

Provide phosphorylation enrichment for all items below, preserving their order.
1. ASPALYRLDLD [TRIL_Y352]
2. CTTFHYNYMCN [TP53_Y234_I232F]
3. ELSDGYWVVSN [TPP1_Y459_A454E]
4. EQPNPYMVLDI [ROCK2_Y1197_S1194P]
5. PINEPYGDDMD [JUP_Y693]
6. QFFQSYFNNNF [ZNF236_Y644]
7. QFPDVYAREEV [CRX_Y67_YF]
8. VVEFGYEFFAK [PPP1CB_Y254_D252Y_YF]

1: 1.84; 2: 0.507; 3: 0.588; 4: 3.03; 5: 0.858; 6: 0.549; 7: 0.672; 8: 0.503

Required: phosphorylation enrichment, one value per sequence below.
1. LVTCSYLLGNS [LMNA_Y646_R644C]
2. VFLGAYDCFLP [SLC22A5_Y486_R488C_YF]
3. ALAHKYPGGGG [HBB_Y146_H147P]
4. IVAREYYSDAD [CAMK2A_Y106_E109D]
5. QLCVSYPGGFT [PROS1_Y259_N258S_YF]

1.3
4.75
0.281
0.559
0.658
